SUBJECT_OF_TEST: HIV-1 Env of isolate MGRM-F1-015 (subtype F) (HIV-1)
ASSAY_EXPLANATION: cell-based or functional assay
IC50 (neutralization) listing for selected binders.
MEASURE_NAME: IC50 (neutralization)

• PGT-135 (antibody, V domains shown) VH: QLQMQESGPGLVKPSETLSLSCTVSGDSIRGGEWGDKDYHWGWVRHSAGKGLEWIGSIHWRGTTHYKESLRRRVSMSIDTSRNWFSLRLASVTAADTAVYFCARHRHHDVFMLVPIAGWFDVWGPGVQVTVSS VL: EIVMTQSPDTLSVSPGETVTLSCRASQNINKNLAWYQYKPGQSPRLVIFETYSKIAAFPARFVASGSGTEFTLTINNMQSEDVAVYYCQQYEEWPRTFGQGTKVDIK = 1.11 µg/mL
• PGT-123 (antibody, V domains shown) VH: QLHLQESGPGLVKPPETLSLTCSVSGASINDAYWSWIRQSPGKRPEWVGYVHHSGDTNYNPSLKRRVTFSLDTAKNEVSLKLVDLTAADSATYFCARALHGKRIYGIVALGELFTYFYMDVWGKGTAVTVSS VL: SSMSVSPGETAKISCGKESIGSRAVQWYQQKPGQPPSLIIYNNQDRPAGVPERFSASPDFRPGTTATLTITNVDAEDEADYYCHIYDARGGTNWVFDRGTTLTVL = > 50 µg/mL
• PGT-127 (antibody, V domains shown) VH: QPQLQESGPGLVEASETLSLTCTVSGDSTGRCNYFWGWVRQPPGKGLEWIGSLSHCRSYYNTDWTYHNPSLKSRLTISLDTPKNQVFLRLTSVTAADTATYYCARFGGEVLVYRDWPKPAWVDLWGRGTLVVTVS VL: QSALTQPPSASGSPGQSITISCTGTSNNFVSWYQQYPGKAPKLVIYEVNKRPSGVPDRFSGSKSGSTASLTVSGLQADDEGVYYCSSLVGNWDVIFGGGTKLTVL = > 50 µg/mL
• PGT-125 (antibody, V domains shown) VH: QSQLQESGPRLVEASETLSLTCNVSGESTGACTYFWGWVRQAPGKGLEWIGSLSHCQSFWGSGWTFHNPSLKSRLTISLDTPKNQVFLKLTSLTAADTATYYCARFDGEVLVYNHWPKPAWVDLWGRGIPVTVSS VL: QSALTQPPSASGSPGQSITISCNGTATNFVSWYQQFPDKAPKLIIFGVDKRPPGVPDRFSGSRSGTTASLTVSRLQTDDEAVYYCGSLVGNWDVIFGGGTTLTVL = > 50 µg/mL
• PGT-130 (antibody, V domains shown) VH: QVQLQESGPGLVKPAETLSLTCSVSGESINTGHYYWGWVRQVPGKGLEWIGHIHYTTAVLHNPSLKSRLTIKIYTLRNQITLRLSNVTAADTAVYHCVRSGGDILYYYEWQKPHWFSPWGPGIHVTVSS VL: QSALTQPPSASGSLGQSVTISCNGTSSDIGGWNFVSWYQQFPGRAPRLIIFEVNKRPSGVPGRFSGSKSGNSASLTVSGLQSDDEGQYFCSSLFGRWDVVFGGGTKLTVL = > 50 µg/mL
